Reference for the values: PubChem BioAssay

assay: inhibitors of mutant huntingtin aggregation, primary screen, imaging, exon1htt(103Q)mCFP cells, high-content imaging (AID 483); details: exon1htt(103Q)mCFP cell line, aggregate imaging, at 2 µM; measured here: cell count, toxicity;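 further: compound exposure lasted 3 days before fixation; percent of the per-plate median nuclei count of sample wells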
# maps each entry to its nuclei count
Express it in %; write the number only.

// worked examples, nuclei count included
{"compound": "NC(Cc1ccc(Oc2ccc(O)cc2)cc1)C(=O)O (stereo unspecified)", "measure_name": "nuclei count", "scale_unit": "%", "readout_number": 103}
{"compound": "Cc1c(O)c(CN2CCCCC2)cc2c3c(c(=O)oc12)CCC3", "measure_name": "nuclei count", "scale_unit": "%", "readout_number": 106}
{"compound": "COC(=O)CSc1nc2sc3c(c2c(=O)n1C1CCCCC1)CCN(C)C3", "measure_name": "nuclei count", "scale_unit": "%", "readout_number": 102}
{"compound": "COc1ccc2c(c1)C1(C)CC(C)(C)N2C(=O)N1c1ccccc1 (stereo unspecified)", "measure_name": "nuclei count", "scale_unit": "%", "readout_number": 111}
{"compound": "COc1cccc(Cn2c(OCC3CCCO3)nc3c2c(=O)n(C)c(=O)n3C)c1 (stereo unspecified)", "measure_name": "nuclei count", "scale_unit": "%", "readout_number": 104}
{"compound": "CCCCC1C(=O)N(c2ccccc2)N(c2ccccc2)C1=O", "measure_name": "nuclei count", "scale_unit": "%", "readout_number": 96.9}

Item CC(=O)N=c1sc(S(N)(=O)=O)nn1C has what recorded nuclei count?
88.8

What do you have for CN(C)[C@@H]1C(=O)C(C(N)=O)=C(O)[C@@]2(O)C(=O)C3=C(O)c4c(O)ccc(Cl)c4[C@@H](O)[C@H]3C[C@@H]12 ?
96.8

What do you have for CCN(CC)c1ncc(C)c(=O)[nH]1 ?
121

What do you have for Cn1c(=O)n(Cc2ccccc2)c(=O)c2c1nc(NCC1CCCO1)n2Cc1ccccc1 (stereo unspecified) ?
104

What do you have for Cc1ccc(-n2nc3cc(Cl)c(NC(=O)c4ccco4)cc3n2)cc1 ?
112

----------
assay: DUSP6 inhibitors restoring Erk phosphorylation by chemical complementation, primary imaging in DUSP6-transfected HeLa (AID 609); conditions: HeLa MKP-3 transfected, phospho-Erk imaging KS statistic; measured here: nuclear c-Myc green intensity z-score; at 10 µM; cells stimulated with TPA for 15 min
Label rule met when z-score is at or above -0.3; anything below gets rule not met.

Previously resolved entries follow.
{"compound": "COc1ccc(-c2onc(C)c2-c2ccccc2)c(O)c1", "cat": "rule met"}
{"compound": "COc1cc2nc(N3CCN(C(=O)c4ccco4)CC3)nc(N)c2cc1OC", "cat": "rule not met"}
{"compound": "Cn1c(NCCN2CCCCC2)cc(=O)n(C)c1=O", "cat": "rule met"}
{"compound": "CN(C)c1ccc(-c2nn3c(-c4ccc(Cl)cc4)nnc3s2)cc1", "cat": "rule not met"}
{"compound": "Cc1ccc(N(CC(=O)O)C2SC(=O)NC2=O)cc1 (stereo unspecified)", "cat": "rule met"}

Is it the case that O=C1[C@@H]2[C@H](C(=O)N1n1cnnc1)[C@H]1C=C[C@@H]2C1 has z-score reaching or exceeding -0.3?
rule met

What do you have for Cc1nnc(NCc2n[nH]c(=O)c3ccccc23)c2ccccc12 ?
rule met

What do you have for Oc1ccc(C=Nc2ccc3ncccc3c2)c(O)c1 ?
rule not met

What do you have for Cc1ccc(NC(=O)CSC2=C(C#N)C(c3ccco3)C3=C(CCCC3=O)N2)cc1 (stereo unspecified) ?
rule met

What do you have for Fc1ccc2[nH]c3c(N4CCN(c5ccccc5)CC4)ncnc3c2c1 ?
rule not met

What do you have for CCO/C([O-])=N/c1c[n+](N2CCOCC2)no1 ?
rule met

----------
# maps each entry to its NADPH fluorescence slope
molecular target: Voltage-gated potassium channel subunit beta-2 (Rattus norvegicus); experiment: KvBeta positive modulators, primary screen, biochemical, NADPH fluorescence (AID 623); conditions: Recombinant KvBeta, NADPH fluorescence decrease slope, 10 min; at 10 µM; stronger effect = lower value;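 further: fluorescence intensity change per second fitted from 20 to 320 s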
Keep the answer to the number alone.

{"compound": "CC1(C)CC(=O)C2=C(C1)N(Cc1ccco1)C(=O)C2(O)C(F)(F)F (centres undefined)", "system_under_test": "Voltage-gated potassium channel subunit beta-2 (Rattus norvegicus)", "NADPH fluorescence slope": "-6.1e-05"}
{"compound": "N#Cc1c(N2CCOCC2)nc(N2CCCCC2)c2c1CCN(C1CCCCC1)C2", "system_under_test": "Voltage-gated potassium channel subunit beta-2 (Rattus norvegicus)", "NADPH fluorescence slope": -0.000108}
{"compound": "CCOC(=O)c1c(C)n(C)c2ccc(OC)c(NC(=O)CCN3CCSCC3)c12", "system_under_test": "Voltage-gated potassium channel subunit beta-2 (Rattus norvegicus)", "NADPH fluorescence slope": "-6.9e-05"}
{"compound": "COc1ccc(Cn2c(=O)c3c(nc(NCCO)n3C)n(C)c2=O)cc1", "system_under_test": "Voltage-gated potassium channel subunit beta-2 (Rattus norvegicus)", "NADPH fluorescence slope": "3.5e-05"}
{"compound": "CCOP(=O)(c1ccccc1)C1(C#N)CCCC1 (centres undefined)", "system_under_test": "Voltage-gated potassium channel subunit beta-2 (Rattus norvegicus)", "NADPH fluorescence slope": -0.000169}

Item CN1c2ccccc2-c2nc3ccccc3n2C1c1ccco1 (centres undefined) has what recorded NADPH fluorescence slope?
1.6e-05

What do you have for CNC(=O)C1CC(=O)N(Cc2ccccc2)C(=Nc2ccc(OC)cc2)S1 (centres undefined) ?
-4.1e-05

What do you have for COc1ccc(N/C=C(\C#N)c2nc3ccccc3n2C)c(OC)c1 ?
-0.000158

What do you have for CCCc1nc(N2CCOCC2)c(C#N)c2c1CCCC2 ?
-0.000102

What do you have for Cn1ncc2nnn(-c3ccccc3)c(=O)c21 ?
-0.000269

----------
assay: inhibitors of TNFa-induced NFkB p65 translocation, primary screen, imaging, HUVEC, MLSMR starter and 10KST1 sets (AID 438); conditions: HUVEC TNFa-induced p65 nuclear translocation; measured here: nuclei count (cytotoxicity indicator), at 2.08 µM;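 further: compound added about 3h40 before a 20 min TNFalpha stimulation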
Label MET when cell count is at or above 500; anything below gets NOT MET.

Previously resolved entries follow.
{"compound": "Cc1c(/C(O)=C2\\C(=O)C(=O)N(CCN(C)C)C2c2cccs2)cnn1-c1ccccc1 (configuration not stated)", "cat": "MET"}
{"compound": "O=C(c1cncc(Br)c1)N1CCCc2ccccc21", "cat": "MET"}
{"compound": "Cc1ccc(OCC(=O)N2CCC(N3CCCCCC3)CC2)cc1", "cat": "NOT MET"}
{"compound": "COc1ccc(OC)c(C2=Nn3c(nnc3-c3ccco3)SC2)c1", "cat": "MET"}
{"compound": "CC(=N\\O)/C(CN(C)C)=N/O", "cat": "MET"}
{"compound": "COC(=O)CC1=NC(=O)CS1", "cat": "MET"}
{"compound": "O=C1C2CC=C(Cl)CC2C(=O)N1CNc1ccccn1 (configuration not stated)", "cat": "MET"}
{"compound": "CC(O)Cn1cnc2c1c(=O)n(C)c(=O)n2C (configuration not stated)", "cat": "MET"}
{"compound": "CN(C)C(CN1C(=O)C2CC=CCC2C1=O)c1cn(C)c2ccccc12 (configuration not stated)", "cat": "MET"}
{"compound": "CCOC(=O)c1c(CNCCN(CC)CC)n(C)c2cc(Br)c(OC)cc12", "cat": "NOT MET"}

Is it the case that Oc1ccc(/C=C/c2cc(O)cc(O)c2)cc1 has cell count reaching or exceeding 500?
MET

----------
# maps each entry to its inhibition
target: Dual specificity protein phosphatase 6 (Homo sapiens) (UniProt Q16828); test: DUSP6 inhibitors restoring Erk phosphorylation by chemical complementation, primary imaging in DUSP6-transfected HeLa (AID 609); conditions: HeLa MKP-3 transfected, phospho-Erk imaging KS statistic; at 10 µM; stronger effect = higher value; cells stimulated with TPA for 15 min;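 on inhibition: phospho-Erk level distribution per well compared with pooled transfected vehicle control wells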
Sequence (Q16828 whole entry, looked up): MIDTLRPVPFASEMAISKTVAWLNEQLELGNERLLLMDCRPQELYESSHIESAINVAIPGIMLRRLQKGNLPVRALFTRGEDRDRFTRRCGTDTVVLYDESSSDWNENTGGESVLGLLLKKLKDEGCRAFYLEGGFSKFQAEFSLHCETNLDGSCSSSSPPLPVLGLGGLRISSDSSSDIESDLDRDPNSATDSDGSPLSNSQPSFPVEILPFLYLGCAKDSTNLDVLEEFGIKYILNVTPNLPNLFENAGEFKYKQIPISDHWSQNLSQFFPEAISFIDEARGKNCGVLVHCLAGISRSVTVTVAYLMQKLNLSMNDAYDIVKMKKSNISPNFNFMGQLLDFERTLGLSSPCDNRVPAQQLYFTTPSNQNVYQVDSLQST
Express it in %; write the number only.

{"molecule": "COc1ccc2c(c1OC)C(=O)OC2C1c2c(cc3c(c2OC)OCO3)CCN1C (stereo not given)", "system_under_test": "Dual specificity protein phosphatase 6 (Homo sapiens) (UniProt Q16828)", "scale_unit": "%", "readout_number": 5.42}

Item C1CCCN(CCCCN2CCCCCC2)CC1 has what recorded inhibition?
-5.89

What do you have for COc1cc(C2C(C#N)=C(N)Oc3cc(C)n(Cc4ccccn4)c(=O)c32)cc2c1OCO2 (stereo not given) ?
11.4

What do you have for CC(NC(=O)NC(N)=O)(C(F)(F)F)C(F)(F)F ?
13.9

What do you have for COc1ccc2oc(=O)c(-c3nc(C)cs3)cc2c1 ?
-2.07

----------
test: inhibitors of E-selectin induction by TNFa, primary screen, imaging, HUVEC, immunofluorescence, MLSMR starter and 10KST1 sets (AID 487); details: HUVEC TNFalpha-induced E-selectin immunofluorescence imaging, at 2 µM; stronger effect = higher value;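 further: signal is fraction of cell area covered by stained E-selectin grains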
measure_name: inhibition (%)
Express it in %; write the number only.

// worked examples, inhibition included
{"molecule": "CCCCCC(=O)N1CC2(C)CN(C(=O)CCCCC)CC(C)(C1)C2=O", "inhibition (%)": -94.9}
{"molecule": "COc1cccc(C2/C(=C(/O)c3ccc(C)cc3)C(=O)C(=O)N2Cc2ccco2)c1 (stereo unspecified)", "inhibition (%)": -20}
{"molecule": "COc1cc(C)nc(Oc2ccc(OCCOc3ccc(C)cc3)nn2)n1", "inhibition (%)": -191}

Next up:
Item CC1(C)Cc2c(sc3nc(SCC#N)n(C4CCCCC4)c(=O)c23)CO1 has what recorded inhibition?
51
